# test-system: Solute carrier family 22 member 2 (Rattus norvegicus, UniProt Q9R0W2)
# Sequence (Q9R0W2 whole entry): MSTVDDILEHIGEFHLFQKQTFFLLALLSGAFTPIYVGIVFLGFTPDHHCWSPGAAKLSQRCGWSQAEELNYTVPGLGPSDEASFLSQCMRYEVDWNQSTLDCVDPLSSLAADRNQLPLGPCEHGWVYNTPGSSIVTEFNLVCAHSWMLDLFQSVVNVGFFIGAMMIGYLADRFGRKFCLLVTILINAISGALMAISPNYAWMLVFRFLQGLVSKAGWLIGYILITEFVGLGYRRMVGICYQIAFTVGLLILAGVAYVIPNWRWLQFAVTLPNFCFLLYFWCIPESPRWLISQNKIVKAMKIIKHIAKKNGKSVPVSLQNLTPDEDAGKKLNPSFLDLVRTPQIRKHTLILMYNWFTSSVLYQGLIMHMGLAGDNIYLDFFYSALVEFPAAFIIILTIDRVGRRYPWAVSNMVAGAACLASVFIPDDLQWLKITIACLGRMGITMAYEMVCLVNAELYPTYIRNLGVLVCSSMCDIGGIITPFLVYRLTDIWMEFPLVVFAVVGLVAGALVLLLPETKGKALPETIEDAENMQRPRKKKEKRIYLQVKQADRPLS
# test-details: TP_TRANSPORTER: inhibition of TEA uptake (in the presence of bicarbonate) (TEA: 20 uM) in OCT2-expressing HEK293 cells
# Type: functional, cell-based
# IC50 annotations
quantity: IC50 (µM)

molecule	reported-measurement
CCN(CC)CCNC(=O)c1ccc(N)cc1 [PROCAINAMIDE]	90
NC12CC3CC(CC(C3)C1)C2 [AMANTADINE]	210
CC[n+]1c(CC2C=C(C)N=C(c3ccccc3)N2C)ccc2ccccc21 (centres undefined) [Cyanine-863]	1
C=C[C@H]1C[N@@]2CC[C@H]1C[C@H]2[C@H](O)c1ccnc2ccc(OC)cc12 [QUININE]	13
